System: Fusobacterium nucleatum subsp. animalis
test: growth AUC relative to DMSO control (median of replicates) (fraction); higher = more growth (less inhibition), active = hit call of the paper
measurement.conditions: 20 µM; 24 h
Quick reference: growth AUC of the listed items.
endpoint.name: growth AUC

compound	subject.of.test	val
Cc1[nH]n(C)c(=O)c1C(=O)c1ccc(C(F)(F)F)cc1S(C)(=O)=O	Fusobacterium nucleatum subsp. animalis	1.01
c1ccc2c(c1)ccc1ccccc12	Fusobacterium nucleatum subsp. animalis	0.985
CC(C)c1nn(C(=O)NC(C)(C)C)c(=O)n1N	Fusobacterium nucleatum subsp. animalis	0.994
Cn1cc(C(=O)Nc2ccccc2-c2cc(F)c(F)c(F)c2)c(C(F)F)n1	Fusobacterium nucleatum subsp. animalis	0.873
CCC(C)Nc1nc(N)nc(Cl)n1 (configuration not stated)	Fusobacterium nucleatum subsp. animalis	1.03
CCCCCCCCSCCO	Fusobacterium nucleatum subsp. animalis	0.902
CC(C)(CO)C(O)(CCc1ccc(Cl)cc1)Cn1cncn1 (configuration not stated)	Fusobacterium nucleatum subsp. animalis	1
C#CCOc1cc(-n2nc(C(C)(C)C)oc2=O)c(Cl)cc1Cl	Fusobacterium nucleatum subsp. animalis	0.926
CC1=C(C(=O)Nc2ccccc2)CCCO1	Fusobacterium nucleatum subsp. animalis	0.969
CC(C)N(C(=O)C(=O)O)c1ccc(F)cc1	Fusobacterium nucleatum subsp. animalis	1.18
COC(=O)Cc1cccc2ccccc12	Fusobacterium nucleatum subsp. animalis	0.996
CCNc1nc(NC(C)(C)C)nc(OC)n1	Fusobacterium nucleatum subsp. animalis	1.01
COC(=O)C(C)Oc1ccc(Oc2ncc(C(F)(F)F)cc2Cl)cc1 (configuration not stated)	Fusobacterium nucleatum subsp. animalis	0.954
CON=C(Cc1cccnc1)c1ccc(Cl)cc1Cl	Fusobacterium nucleatum subsp. animalis	1.03
COC(=O)c1c(Cl)c(Cl)c(C(=O)OC)c(Cl)c1Cl	Fusobacterium nucleatum subsp. animalis	0.963
O=C=NC1CCC(CC2CCC(N=C=O)CC2)CC1 (configuration not stated)	Fusobacterium nucleatum subsp. animalis	1.05
CS(=O)(=O)c1ccc(C(=O)O)c(N)c1	Fusobacterium nucleatum subsp. animalis	1.08
